The next entries give measured log10 of GI50 for fibroblast cell line MRC5.
REPORTED ENDPOINT: log10 of GI50 (log10 of the value in nM)

| COMPOUND | TEST TARGET | REPORTED ENDPOINT | READOUT VALUE |
| --- | --- | --- | --- |
| COC1C(=O)OC(C)C(C)C=C(C)CC(C)C(=O)NC(C)C(=O)N(C)C(Cc2c[nH]c3ccccc23)C(=O)NC1c1ccc(O)c(Br)c1 (stereo not shown) [Bromo-Chondramide A3] | fibroblast cell line MRC5 | log10 of GI50 | 1.65 |
| C/C1=C\[C@@H](C)[C@@H](C)OC(=O)C[C@H](c2ccc(O)cc2)NC(=O)[C@@H](Cc2c[nH]c3ccccc23)N(C)C(=O)[C@H](C)NC(=O)[C@@H](C)C1 [Chondramide C, reference compound] | fibroblast cell line MRC5 | log10 of GI50 | 1.42 |
| CO[C@@H]1C(=O)O[C@H](C)[C@H](C)/C=C(\C)C[C@H](C)C(=O)N[C@@H](C)C(=O)N(C)[C@H](Cc2c[nH]c3ccccc23)C(=O)N[C@H]1c1ccc(O)cc1 [Chondramide A, reference compound] | fibroblast cell line MRC5 | log10 of GI50 | 1.80 |
| CC1=CC(C)C(C)OC(=O)CC(c2ccc(O)c(Br)c2)NC(=O)C(Cc2c[nH]c3ccccc23)N(C)C(=O)C(C)NC(=O)C(C)C1 (stereo not shown) [Bromo-Chondramide C3] | fibroblast cell line MRC5 | log10 of GI50 | 1.76 |
| COC1C(=O)OC(C)C(C)C=C(C)CC(C)C(=O)NC(C)C(=O)N(C)C(Cc2c(Cl)[nH]c3ccccc23)C(=O)NC1c1ccc(OP(=O)(O)O)c(Cl)c1 (stereo not shown) [Chondramide A8] | fibroblast cell line MRC5 | log10 of GI50 | 0.88 |
| CCC1OC(=O)CC(c2ccc(O)cc2)NC(=O)C(Cc2c[nH]c3ccccc23)N(C)C(=O)C(C)NC(=O)C(C)CC(C)=CC1C (stereo not shown) [Propionyl-Chondramide C1] | fibroblast cell line MRC5 | log10 of GI50 | 1.86 |
| CCC1OC(=O)CC(c2ccc(O)c(Br)c2)NC(=O)C(Cc2c[nH]c3ccccc23)N(C)C(=O)C(C)NC(=O)C(C)CC(C)=CC1C (stereo not shown) [Propionyl-Bromo-Chondramide C3] | fibroblast cell line MRC5 | log10 of GI50 | 2.11 |

====

Recorded GI50 values KB-3.1 for the following molecules
# Test system: KB-3.1: human cervical carcinoma
# ASSAY DETAILS: Growth inhibition experiments (GI50), KB-3.1
# Type: cell-based
# ASSAY CONDITIONS: Table 1; KB-3.1

| MOLECULE | GI50 values KB-3.1 (nM) |
| --- | --- |
| CC1=CC(C)C(C)OC(=O)CC(c2ccc(O)c(Br)c2)NC(=O)C(Cc2c[nH]c3ccccc23)N(C)C(=O)C(C)NC(=O)C(C)C1 (stereo not drawn) [Bromo-Chondramide C3] | 46.8 |
| COC1C(=O)OC(C)C(C)C=C(C)CC(C)C(=O)NC(C)C(=O)N(C)C(Cc2c[nH]c3ccccc23)C(=O)NC1c1ccc(O)c(Br)c1 (stereo not drawn) [Bromo-Chondramide A3] | 74.5 |
| COC1C(=O)OC(C)C(C)C=C(C)CC(C)C(=O)NC(C)C(=O)N(C)C(Cc2c(Cl)[nH]c3ccccc23)C(=O)NC1c1ccc(O)c(Cl)c1 (stereo not drawn) [Chondramide A4] | 56.8 |
| COC1C(=O)OC(C)C(C)C=C(C)CC(C)C(=O)NC(C)C(=O)N(C)C(Cc2c(Cl)[nH]c3ccccc23)C(=O)NC1c1ccc(OP(=O)(O)O)c(Cl)c1 (stereo not drawn) [Chondramide A8] | 13.4 |
| COC1C(=O)OC(C)C(C)C=C(C)CC(C)C(=O)NC(C)C(=O)N(C)C(Cc2c[nH]c3ccccc23)C(=O)NC1c1ccc(O)c(Cl)c1 (stereo not drawn) [Chondramide A3] | 63.5 |

====

Recorded log10 of GI50 for the following compounds
# Test system: HCT-116 colon carcinoma cell line
# ASSAY DETAILS: Growth inhibition experiments (MTT, 5 d), HCT-116
# Assay type: cell-based, human
# ASSAY CONDITIONS: group A derivatives, small panel of cancer cell lines; HCT-116 human colon carcinoma; read-out: GI50 HCT-116
REPORTED ENDPOINT: log10 of GI50 (log10 of the value in nM)

| COMPOUND | log10 of GI50 |
| --- | --- |
| C/C1=C\CCOC(=O)CC(c2ccc(O)c(Cl)c2)NC(=O)C(Cc2c(Cl)[nH]c3ccccc23)N(C)C(=O)C(C)NC(=O)CC1 (centres unmarked) [CA2] | 1.48 |
| C/C1=C\CCOC(=O)CC(c2ccc(O)c(Cl)c2)NC(=O)C(C(C)C)N(C)C(=O)C(C)NC(=O)CC1 (centres unmarked) [CA9] | 2.26 |
| C/C1=C\CCOC(=O)CC(c2ccc(O)c(Br)c2)NC(=O)C(Cc2c[nH]c3ccccc23)N(C)C(=O)C(C)NC(=O)CC1 (centres unmarked) [CA3] | 0.32 |
| CO[C@@H]1C(=O)O[C@H](C)[C@H](C)/C=C(\C)C[C@H](C)C(=O)N[C@@H](C)C(=O)N(C)[C@H](Cc2c[nH]c3ccccc23)C(=O)N[C@H]1c1ccc(O)cc1 [Chondramide A, reference compound] | 1.96 |
| CCC1C/C=C(\C)CCC(=O)NC(C)C(=O)N(C)C(C(C)C)C(=O)NC(c2ccc(O)c(Cl)c2)CC(=O)O1 (centres unmarked) [CA4] | 1.41 |

====

# Tested on: human U-2 OS osteosarcoma cell line
# ASSAY DETAILS: Growth inhibition experiments (MTT, 5 d), U-2 OS
# Type: cell-based
# ASSAY CONDITIONS: group A derivatives, small panel of cancer cell lines; U-2 OS human osteosarcoma; read-out: GI50 U-2 OS
Recorded log10(GI50) for the following compounds
REPORTED ENDPOINT: log10(GI50) (log10 of the value in nM)

| COMPOUND | TEST TARGET | log10(GI50) |
| --- | --- | --- |
| C/C1=C\CCOC(=O)CC(c2ccc(O)c(Br)c2)NC(=O)C(Cc2c[nH]c3ccccc23)N(C)C(=O)C(C)NC(=O)CC1 (centres unmarked) [CA3] | human U-2 OS osteosarcoma cell line | 0.26 |
| CCC1C/C=C(\C)CC(C)C(=O)NC(C)C(=O)N(C)C(Cc2c(Cl)[nH]c3ccccc23)C(=O)NC(c2ccc(O)c(Cl)c2)CC(=O)O1 (single isomer, unassigned) [CA7-Fr1] | human U-2 OS osteosarcoma cell line | 1.73 |
| CCC1C/C=C(\C)CCC(=O)NC(C)C(=O)N(C)C(Cc2c(Cl)[nH]c3ccccc23)C(=O)NC(c2ccc(O)c(Cl)c2)CC(=O)O1 (centres unmarked) [CA8] | human U-2 OS osteosarcoma cell line | -0.22 |
| CCC1C/C=C(\C)CCC(=O)NC(C)C(=O)N(C)C(C(C)C)C(=O)NC(c2ccc(O)c(Cl)c2)CC(=O)O1 (centres unmarked) [CA5] | human U-2 OS osteosarcoma cell line | 2.18 |
| CO[C@@H]1C(=O)O[C@H](C)[C@H](C)/C=C(\C)C[C@H](C)C(=O)N[C@@H](C)C(=O)N(C)[C@H](Cc2c[nH]c3ccccc23)C(=O)N[C@H]1c1ccc(O)cc1 [Chondramide A, reference compound] | human U-2 OS osteosarcoma cell line | 1.84 |
| CCC1C/C=C(\C)CC(C)C(=O)NC(C)C(=O)N(C)C(C(C)C)C(=O)NC(c2ccc(O)c(Cl)c2)CC(=O)O1 (single isomer, unassigned) [CA6-Fr2] | human U-2 OS osteosarcoma cell line | 1.82 |

====

Recorded GI50 for the following compounds
# Test system: human U-2 OS osteosarcoma cell line
# ASSAY DETAILS: Growth inhibition experiments (MTT, 5 d), U-2 OS
# Type: cell-based
# ASSAY CONDITIONS: group A derivatives, small panel of cancer cell lines; U-2 OS human osteosarcoma; read-out: GI50 U-2 OS

| COMPOUND | TEST TARGET | GI50 / nM |
| --- | --- | --- |
| CCC1C/C=C(\C)CC(C)C(=O)NC(C)C(=O)N(C)C(C(C)C)C(=O)NC(c2ccc(O)c(Cl)c2)CC(=O)O1 (single isomer, unassigned) [CA6-Fr1] | human U-2 OS osteosarcoma cell line | 59.6 |
| C/C1=C\CCOC(=O)CC(c2ccc(O)c(Cl)c2)NC(=O)C(Cc2c(Cl)[nH]c3ccccc23)N(C)C(=O)C(C)NC(=O)CC1 (stereo not drawn) [CA2] | human U-2 OS osteosarcoma cell line | 66.7 |
| CCC1C/C=C(\C)CC(C)C(=O)NC(C)C(=O)N(C)C(Cc2c(Cl)[nH]c3ccccc23)C(=O)NC(c2ccc(O)c(Cl)c2)CC(=O)O1 (single isomer, unassigned) [CA7-Fr2] | human U-2 OS osteosarcoma cell line | 1.3 |
